Here, each record is paired with measured pIC50 data.
experiment: inhibitors of enzymatic SUMO conjugation, SAR follow-up, biochemical, AlphaScreen (AID 485374); conditions: AlphaScreen biochemical SUMOylation assay
// pIC50 is dimensionless: -log10 of concentration (M)

| compound | test.readout | recorded.number |
| --- | --- | --- |
| CCCCn1c(NC(=O)C2CCCCC2)c(C#N)c2nc3ccccc3nc21 | pIC50 | 5.62 |
| C=CC[C@@H](N(Cc1ccccc1)/C(=C\C(=O)OC)C(=O)OC)C12C=CC(O1)C(C(=O)OC)=C2C(=O)OC (some centres undefined) | pIC50 | 4.67 |

Q: Can you look up the measured pIC50 of CCCCn1c(NC(=O)c2ccc(F)cc2)c(S(=O)(=O)c2ccc(C)cc2)c2nc3ccccc3nc21 for me?
A: 5.20

Q: // repeat for COC(=O)C1=C(C(=O)OC)C2(C(Cc3ccc(OC(F)(F)F)cc3)Nc3ccccc3)C=CC1O2 (centres undefined) and report
A: 6.21

Q: Queued: C=CC[C@H](N(Cc1ccccc1)/C(=C\C(=O)OC)C(=O)OC)C12C=CC(O1)C(C(=O)OC)=C2C(=O)OC (some centres undefined)
A: 4.82

Q: Entry CCC(=O)Nc1c(S(=O)(=O)c2ccccc2)c2nc3ccccc3nc2n1Cc1ccccc1 please
A: 4.36
